TEST DESCRIPTION: Plasma kinetics after single subcutaneous injection of brecanavir solution in rats
Assay type: in vivo, Sprague-Dawley rats
ASSAY CONDITIONS: Sprague-Dawley (Crl:CD(SD)IGS), rat, plasma, sc, 56 mg/kg, mean of n=4 rats; single s.c. solution, 56 mg/kg; read-out: Cmax
PROPERTY: Cmax (ng/mL)
Report the figure in ng/mL without appending any unit label.

Item Cc1nc(COc2ccc(C[C@H](NC(=O)O[C@H]3CO[C@H]4OCC[C@H]43)[C@H](O)CN(CC(C)C)S(=O)(=O)c3ccc4c(c3)OCO4)cc2)cs1 has what recorded Cmax?
322

====

TEST DESCRIPTION: Plasma kinetics after single subcutaneous injection of brecanavir solution in rats
Assay type: in vivo, Sprague-Dawley rats
ASSAY CONDITIONS: Sprague-Dawley (Crl:CD(SD)IGS), rat, plasma, sc, 16 mg/kg, individual rats; single s.c. solution, 16 mg/kg
PROPERTY: AUC(0-t)
Numeric answer plus unit only.

Item Cc1nc(COc2ccc(C[C@H](NC(=O)O[C@H]3CO[C@H]4OCC[C@H]43)[C@H](O)CN(CC(C)C)S(=O)(=O)c3ccc4c(c3)OCO4)cc2)cs1 [brecanavir] has what recorded AUC(0-t)?
6500 ng·h/mL

====

TEST DESCRIPTION: Plasma kinetics after intravenous injection of brecanavir solution in rats
Format: in vivo
ASSAY CONDITIONS: rat, plasma, iv, 2 mg/kg, individual rats; i.v. solution (PEG400/saline 70:30, 1 mg/ml), 2 mg/kg
PROPERTY: AUC(0-t)

Item Cc1nc(COc2ccc(C[C@H](NC(=O)O[C@H]3CO[C@H]4OCC[C@H]43)[C@H](O)CN(CC(C)C)S(=O)(=O)c3ccc4c(c3)OCO4)cc2)cs1 has what recorded AUC(0-t)?
1370 ng·h/mL

====

TEST DESCRIPTION: Plasma kinetics after single subcutaneous injection of brecanavir solution in rats
Assay type: in vivo, Sprague-Dawley rats
ASSAY CONDITIONS: Sprague-Dawley (Crl:CD(SD)IGS), rat, plasma, sc; rats, s.c. solution, 16 mg/kg; read-out: average absolute bioavailability (F)
PROPERTY: bioavailability
Numeric answer plus unit only.

Item Cc1nc(COc2ccc(C[C@H](NC(=O)O[C@H]3CO[C@H]4OCC[C@H]43)[C@H](O)CN(CC(C)C)S(=O)(=O)c3ccc4c(c3)OCO4)cc2)cs1 has what recorded bioavailability?
91%

====

TEST DESCRIPTION: Plasma kinetics after single subcutaneous injection of brecanavir solution in rats
Format: in vivo, Sprague-Dawley rats
ASSAY CONDITIONS: Sprague-Dawley (Crl:CD(SD)IGS), rat, plasma, sc; rats, s.c. solution, 56 mg/kg; read-out: average absolute bioavailability (F)
PROPERTY: bioavailability (%)
Report the figure in % without appending any unit label.

Item Cc1nc(COc2ccc(C[C@H](NC(=O)O[C@H]3CO[C@H]4OCC[C@H]43)[C@H](O)CN(CC(C)C)S(=O)(=O)c3ccc4c(c3)OCO4)cc2)cs1 [brecanavir] has what recorded bioavailability?
66

====

TEST DESCRIPTION: Plasma kinetics after single subcutaneous injection of brecanavir solution in rats
Type: in vivo, Sprague-Dawley rats
ASSAY CONDITIONS: Sprague-Dawley (Crl:CD(SD)IGS), rat, plasma, sc, 56 mg/kg, mean of n=4 rats; single s.c. solution, 56 mg/kg
PROPERTY: AUC(0-t) (ng·h/mL)
Report the figure in ng·h/mL without appending any unit label.

Item Cc1nc(COc2ccc(C[C@H](NC(=O)O[C@H]3CO[C@H]4OCC[C@H]43)[C@H](O)CN(CC(C)C)S(=O)(=O)c3ccc4c(c3)OCO4)cc2)cs1 [brecanavir] has what recorded AUC(0-t)?
21700

Numbers sourced from patent US20120201868A1.
